Field: CMV-LACZ in Myotubes, signal relative to DMSO. Provide a value for each of the compounds that follow.
- System: β-galactosidase in CMV-LacZ C2C12 myotubes
- ASSAY NOTES: CMV-LacZ secondary screen in C2C12 myotubes (β-Gal stabilizing assay)
- Type: cell-based, mouse
- CONDITION: 20 uM; C2C12 CMV-LacZ myotubes; fold relative to DMSO
Answers are plain numbers.

Consider the following illustrative entries.
Cc1cc(NC(=O)CN2C(=O)/C(=C/c3ccccc3F)SC2=S)no1 : 0.9636
CCOc1ccc(Br)cc1S(=O)(=O)Nc1ccc(C(=O)Nc2ccccc2OC)cc1 : 1.1180

Batch request: CMV-LACZ in Myotubes, signal relative to DMSO for each of the following compounds.
1. O=C(CSc1nnc(COc2ccc(Br)cc2)o1)NC1CCCCC1
2. O=CN1CCN(C(=O)CC(c2ccccc2)c2cc(Br)ccc2O)CC1 (centres unmarked)
3. CCOC(=O)c1nnn(-c2nonc2OC)c1-c1ccccc1
4. CC(C)Oc1cccc(C(=O)Nc2ccc(CN3CCOCC3)cc2)c1
5. COc1ccccc1NS(=O)(=O)c1cc(NC(=O)c2ccc(Cl)nc2)ccc1N1CCCC1
6. COc1cc(NC(=O)CN(C)S(=O)(=O)c2ccc3c(c2)CC(C)N3C(C)=O)cc(OC)c1OC (centres unmarked)

[out]
1.3622
1.1484
1.0494
0.8812
0.9847
0.9969
